Reported Ki for target or system 5-hydroxytryptamine receptor 1B (Rattus norvegicus), by entry.
Recorded Metric: Ki

compound="O=C1NCN(c2ccccc2)C12CCN(CC1COc3ccccc3O1)CC2 (stereo in doubt; (-)) [SPIROXATRINE]" measurement="> 10 µM"
compound="O=C1NCN(c2ccccc2)C12CCN(CC1COc3ccccc3O1)CC2 (stereo in doubt; (+)) [SPIROXATRINE]" measurement="> 10 µM"

====

Reported Ki for target or system 5-hydroxytryptamine receptor 1A (Rattus norvegicus), by entry.
Recorded Metric: Ki

compound="O=C1NCN(c2ccccc2)C12CCN(CC1COc3ccccc3O1)CC2 (stereo in doubt; (+)) [SPIROXATRINE]" recorded_metric=Ki measurement="21 nM"
compound="O=C1NCN(c2ccccc2)C12CCN(CC1COc3ccccc3O1)CC2 (stereo in doubt; (-)) [SPIROXATRINE]" recorded_metric=Ki measurement="1.9 nM"
